Value source: paper PMC9698057

assay-text: Lipophilicity determination by RP-HPLC (log of capacity factor k)
Type: physicochemical
condition-label: C18, isocratic methanol 72%/water 28%
Binarize log k at 0.5; below is Met, at or above is Not met.

Before answering, review these 4 worked examples.
compound="O=C(/C=C/c1ccccc1)Nc1c(Br)cccc1Br [Compound 14]" group=Met
compound="O=C(/C=C/c1ccccc1)Nc1c(Cl)cccc1Cl [Compound 10]" group=Met
compound="COc1ccc([N+](=O)[O-])cc1NC(=O)/C=C/c1ccccc1 [Compound 16]" group=Met
compound="O=C(/C=C/c1ccccc1)Nc1cc(Cl)cc(Cl)c1 [Compound 12]" group="Not met"

Problem: Please check: log k for O=C(/C=C/c1ccccc1)Nc1ccc(Cl)c(Cl)c1 [Compound 11] , strictly under 0.5 or not?
Result: Not met

Problem: Then O=C(/C=C/c1ccccc1)Nc1cc(C(F)(F)F)cc(C(F)(F)F)c1 [Compound 15] ?
Result: Not met

Problem: Then O=C(/C=C/c1ccccc1)Nc1c(F)cc(F)cc1F [Compound 32] ?
Result: Met

Problem: Then O=C(/C=C/c1ccccc1)Nc1cc(C(F)(F)F)ccc1Cl [Compound 27] ?
Result: Not met

Problem: Then O=C(/C=C/c1ccccc1)Nc1c(Br)cc(F)c(Cl)c1Br [Compound 37] ?
Result: Met

Problem: Then O=C(/C=C/c1ccccc1)Nc1ccc(Br)cc1Cl [Compound 24] ?
Result: Not met

Problem: Then O=C(/C=C/c1ccccc1)Nc1cc(Cl)c(Cl)c(Cl)c1 [Compound 35] ?
Result: Not met

Problem: Then O=C(/C=C/c1ccccc1)Nc1ccc(F)cc1C(F)(F)F [Compound 29] ?
Result: Met

Problem: Then Cc1ccc(C)c(NC(=O)/C=C/c2ccccc2)c1 [Compound 7] ?
Result: Met

Problem: Then O=C(/C=C/c1ccccc1)Nc1ccc(Cl)cc1Cl [Compound 8] ?
Result: Not met

Problem: Then Cc1ccc(NC(=O)/C=C/c2ccccc2)cc1 [Compound 3] ?
Result: Met

Problem: Then O=C(/C=C/c1ccccc1)Nc1cc(F)ccc1Br [Compound 23] ?
Result: Met

Problem: Then O=C(/C=C/c1ccccc1)Nc1ccc(Cl)cc1C(F)(F)F [Compound 30] ?
Result: Met

Problem: Then O=C(/C=C/c1ccccc1)Nc1c(Br)cc(C(F)(F)F)cc1Br [Compound 36] ?
Result: Met

Problem: Then O=C(/C=C/c1ccccc1)Nc1ccc([N+](=O)[O-])cc1C(F)(F)F [Compound 17] ?
Result: Met

Problem: Then O=C(/C=C/c1ccccc1)Nc1ccc(Br)cc1Br [Compound 13] ?
Result: Not met

Problem: Then O=C(/C=C/c1ccccc1)Nc1ccc(Br)c(Cl)c1 [Compound 25] ?
Result: Not met

---

Listing of recorded log k by entry.
assay-text: Lipophilicity determination by RP-HPLC (log of capacity factor k)
Type: physicochemical
condition-label: C18, isocratic methanol 72%/water 28%
Please give the numeric answer without any surrounding text.

See these solved cases before continuing.
mol_smiles=O=C(/C=C/c1ccccc1)Nc1ccc(Br)cc1C(F)(F)F numeric_readout=0.4683
mol_smiles=O=C(/C=C/c1ccccc1)Nc1cc(C(F)(F)F)ccc1Br numeric_readout=0.5561
mol_smiles=Cc1cccc(NC(=O)/C=C/c2ccccc2)c1 numeric_readout=0.2729

Problem: Which value of log k has been reported for O=C(/C=C/c1ccccc1)Nc1ccc(C(F)(F)F)c(F)c1 in the records?
Result: 0.5789

Problem: Then O=C(/C=C/c1ccccc1)Nc1cc(Br)ccc1F ?
Result: 0.4875

---

System: Plasmodium falciparum 3D7/MRA-102
assay-text: In vitro antiplasmodial activity
Type: cell-based
condition-label: chloroquine-sensitive strain 3D7/MRA-102, 48 h incubation, n = 3; read-out: Pf IC50 ± SD
reported-property: pIC50
pIC50 field: float, defined as -log10 of concentration (mol/L).

Problem: Which value of pIC50 has been reported for Cc1cccc(NC(=O)/C=C/c2ccccc2)c1 in the records?
Result: 4.66

---

assay-text: Lipophilicity determination by RP-HPLC (log of capacity factor k)
Format: physicochemical
condition-label: C18, isocratic methanol 72%/water 28%
reported-property: log k
Please give the numeric answer without any surrounding text.

mol_smiles=O=C(/C=C/c1ccccc1)Nc1cccc(C(F)(F)F)c1 reported_property="log k" numeric_readout=0.4859

Problem: Which value of log k has been reported for O=C(/C=C/c1ccccc1)Nc1ccc([N+](=O)[O-])c(C(F)(F)F)c1 in the records?
Result: 0.5004

Problem: Then O=C(/C=C/c1ccccc1)Nc1ccc(Cl)cc1Br ?
Result: 0.5476

---

assay-text: Lipophilicity determination by RP-HPLC (log of capacity factor k)
Format: physicochemical
condition-label: C18, isocratic methanol 72%/water 28%
Listing of recorded log k by entry.
Please give the numeric answer without any surrounding text.

mol_smiles=O=C(/C=C/c1ccccc1)Nc1cc(Cl)c(Cl)cc1Cl numeric_readout=0.8373
mol_smiles=O=C(/C=C/c1ccccc1)Nc1cc(F)c(F)c(F)c1 numeric_readout=0.4893

Next, consider the following compound.
Problem: Which value of log k has been reported for O=C(/C=C/c1ccccc1)Nc1cc(Cl)ccc1Cl in the records?
Result: 0.5799
